Test system: Bacillus subtilis
test-details: Antimicrobial activity against Bacillus subtilis ATCC 6633
Assay type: functional
assay-endpoint: MIC (µg/mL)

{"structure": "Cn1c([N+](=O)[O-])cnc1/C=C1\\Oc2ccccc2C1=O", "value-units": "µg/mL", "readout-relation": "=", "reported-value": 0.78}
{"structure": "CC1(C)S[C@@H]2[C@H](NC(=O)[C@H](N)c3ccc(O)cc3)C(=O)N2[C@H]1C(=O)O", "value-units": "µg/mL", "readout-relation": "=", "reported-value": 12.5}
{"structure": "Cn1c([N+](=O)[O-])cnc1/C=C1\\Oc2cc(Cl)ccc2C1=O", "value-units": "µg/mL", "readout-relation": "=", "reported-value": 1.56}
{"structure": "Cc1ccc2c(c1)C(=O)/C(=C/c1ncc([N+](=O)[O-])n1C)O2", "value-units": "µg/mL", "readout-relation": "=", "reported-value": 1.56}
{"structure": "Cc1ccc2c(c1)O/C(=C\\c1ncc([N+](=O)[O-])n1C)C2=O", "value-units": "µg/mL", "readout-relation": "=", "reported-value": 0.78}
{"structure": "Cn1cnc([N+](=O)[O-])c1/C=C1\\Oc2ccc(Cl)cc2C1=O", "value-units": "µg/mL", "readout-relation": ">", "reported-value": 100}
{"structure": "COc1ccc2c(c1OC)O/C(=C\\c1ncc([N+](=O)[O-])n1C)C2=O", "value-units": "µg/mL", "readout-relation": "=", "reported-value": 0.39}
{"structure": "Cn1cnc([N+](=O)[O-])c1/C=C1\\Oc2ccc(I)cc2C1=O", "value-units": "µg/mL", "readout-relation": ">", "reported-value": 100}
{"structure": "Cn1c([N+](=O)[O-])cnc1/C=C1\\Cc2ccccc2C1=O", "value-units": "µg/mL", "readout-relation": ">", "reported-value": 100}
{"structure": "Cn1cnc([N+](=O)[O-])c1/C=C1\\Oc2cc(Cl)ccc2C1=O", "value-units": "µg/mL", "readout-relation": ">", "reported-value": 100}
